Below are pKi values for Adenosine receptor A3 (Homo sapiens) collected from several publications.
# TARGET_OR_TEST_SYSTEM: Adenosine receptor A3 (Homo sapiens)
# Sequence (P0DMS8 whole entry): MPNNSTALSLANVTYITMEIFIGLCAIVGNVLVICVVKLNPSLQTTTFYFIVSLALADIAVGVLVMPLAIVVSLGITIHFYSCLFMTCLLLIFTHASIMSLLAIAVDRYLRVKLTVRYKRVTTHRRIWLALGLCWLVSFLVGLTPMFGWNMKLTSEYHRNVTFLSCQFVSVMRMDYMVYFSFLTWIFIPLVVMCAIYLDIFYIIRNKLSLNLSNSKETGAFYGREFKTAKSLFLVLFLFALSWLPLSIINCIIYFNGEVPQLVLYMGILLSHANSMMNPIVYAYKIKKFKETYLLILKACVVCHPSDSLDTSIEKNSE
pKi: −log10 of the molar value.

These recorded examples may help you get a feel for the data.
{"COMPOUND": "Cn1c(=O)c2c(nc3n2CCCN3CCc2ccccn2)n(C)c1=O", "pKi": "< 5.00"}
{"COMPOUND": "O[C@@H]1[C@H](O)C2CC2[C@H]1n1cnc2c(NCc3cccc(Cl)c3)nc(C#Cc3ccc(F)c(F)c3)nc21 (single isomer, unassigned)", "pKi": "≤ 7.00"}
{"COMPOUND": "Oc1c2nnnc-2nc2n1CCS2", "pKi": "< 6.00"}

Measured pKi of Oc1ccc(CCNC2=NC(C#Cc3ccc(Cl)s3)=NC3=NC=NC32)cc1O (centres undefined) : ≤ 7.00

----------
Below are Ki values for the protein given by its sequence collected from several publications.
Target chain: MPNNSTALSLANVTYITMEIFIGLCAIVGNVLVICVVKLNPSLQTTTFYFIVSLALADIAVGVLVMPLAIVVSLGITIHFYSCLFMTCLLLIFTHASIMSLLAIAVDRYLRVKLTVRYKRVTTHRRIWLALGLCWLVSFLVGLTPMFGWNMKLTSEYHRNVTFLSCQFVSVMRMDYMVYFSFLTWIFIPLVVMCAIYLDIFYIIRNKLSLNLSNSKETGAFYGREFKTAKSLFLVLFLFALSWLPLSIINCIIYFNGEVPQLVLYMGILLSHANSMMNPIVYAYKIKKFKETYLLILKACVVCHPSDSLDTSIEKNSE
OBSERVED_PROPERTY: Ki (nM)

These recorded examples may help you get a feel for the data.
{"COMPOUND": "CN(C)c1nc(N)nc(-c2sc(NC(=O)c3ccco3)nc2-c2ccccc2)n1", "Ki [nM]": 918}
{"COMPOUND": "CCCn1c(=O)[nH]c2nc(-c3cnn(Cc4ccccc4)c3)[nH]c2c1=O", "Ki [nM]": 120}
{"COMPOUND": "O=P(O)(O)OC[C@H]1O[C@@H](n2cnc3c(NC4CCCC4)nc(Cl)nc32)[C@H](O)[C@@H]1O", "Ki [nM]": 1300}
{"COMPOUND": "Cc1ccccc1-n1cc2c(n1)c(=O)[nH]c1ccccc12", "Ki [nM]": 79.2}

(I) CCCCCNS(=O)(=O)c1ccc(NC(=O)Nc2ncnc3c2ncn3C2O[C@H](C(=O)NCC)C(O)C2O)cc1 (single isomer, unassigned)
(II) CC(Oc1ccc(-c2cc3c([nH]2)c(=O)n(C)c(=O)n3C)cc1)C(=O)Nc1ccccc1 (configuration not stated)
Query :: Hi there, can you help? I need to know whether I or II has lower measured Ki. Indicate your choice by writing its label.
Result :: I
(I: 80 nM, II: 912 nM)
